These measurements were taken from paper PMC6147116.

# EXPERIMENTAL TARGET: 17β-hydroxysteroid dehydrogenase type 1 (17β-HSD1) (Homo sapiens, UniProt P14061)
# Sequence (P14061 1-328): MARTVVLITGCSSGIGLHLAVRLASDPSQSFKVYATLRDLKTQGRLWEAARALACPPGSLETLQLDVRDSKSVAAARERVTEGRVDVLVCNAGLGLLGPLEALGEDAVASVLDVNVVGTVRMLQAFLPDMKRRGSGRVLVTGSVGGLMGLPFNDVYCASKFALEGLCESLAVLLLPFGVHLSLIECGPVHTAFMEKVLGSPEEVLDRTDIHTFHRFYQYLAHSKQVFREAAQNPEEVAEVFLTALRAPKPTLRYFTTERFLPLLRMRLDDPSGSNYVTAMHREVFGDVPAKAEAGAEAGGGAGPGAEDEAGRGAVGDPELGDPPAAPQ
# ASSAY PROCEDURE: 17β-HSD1 inhibition, in vitro radiosubstrate incubation (E1 to E2), human placental cytosol; Dixon kinetic analysis
# Assay type: biochemical
# SETUP CONDITIONS: 17β-HSD1 IC50 ± SD, E1 substrate 1.0 µM, NADPH excess
Labelling: IC50 reported below 3000 nM becomes Satisfied; at or above becomes Not satisfied.

Recorded results for 4 compounds are shown here.
| COMPOUND | QUALITATIVE LABEL |
| --- | --- |
| C[C@]12CC[C@@H]3c4cc(Cl)c(O)c(Cl)c4CC[C@H]3[C@@H]1CCC2=O | Satisfied |
| C[C@]12CCC[C@H]1[C@@H]1CCc3c(cc(Br)c(O)c3Br)[C@H]1CC2 [16b] | Not satisfied |
| C[C@]12CC[C@@H]3c4ccc(O)c(Cl)c4CC[C@H]3[C@@H]1CCC2=O | Satisfied |
| C[C@@]12CC[C@@H]3c4ccc(O)c(Cl)c4CC[C@H]3[C@@H]1CCC2=O [11c] | Satisfied |

Please let me know if C[C@@]12CC[C@@H]3c4cc(Cl)c(O)c(Cl)c4CC[C@H]3[C@@H]1CCC2=O [12c] shows IC50 below 3000 nM.
Satisfied

* * *

Some compounds, each annotated with its measured IC50.
# EXPERIMENTAL TARGET: human aromatase (Homo sapiens)
# Construct: from tissue; host or cells: human term placenta, microsomal fraction
# ASSAY PROCEDURE: Aromatase inhibition, in vitro radiosubstrate incubation (testosterone to E2 conversion), human placental microsomes
# Assay type: biochemical
Kindly provide the numeric value in µM only, without the unit symbol.

| COMPOUND SMILES | READOUT VALUE |
| --- | --- |
| C[C@]12CC[C@@H]3c4cc(Br)c(O)cc4CC[C@H]3[C@@H]1CCC2=O | 8.7 |

The record that follows has no IC50 shown yet.
Specify the recorded IC50 for C[C@]12CC[C@@H]3c4cc(Cl)c(O)cc4CC[C@H]3[C@@H]1CCC2=O , system: human aromatase (Homo sapiens).
6

* * *

# EXPERIMENTAL TARGET: human aromatase (Homo sapiens, UniProt P11511)
# Construct: from tissue; host or cells: human term placenta, microsomal fraction
# Sequence (P11511 1-503): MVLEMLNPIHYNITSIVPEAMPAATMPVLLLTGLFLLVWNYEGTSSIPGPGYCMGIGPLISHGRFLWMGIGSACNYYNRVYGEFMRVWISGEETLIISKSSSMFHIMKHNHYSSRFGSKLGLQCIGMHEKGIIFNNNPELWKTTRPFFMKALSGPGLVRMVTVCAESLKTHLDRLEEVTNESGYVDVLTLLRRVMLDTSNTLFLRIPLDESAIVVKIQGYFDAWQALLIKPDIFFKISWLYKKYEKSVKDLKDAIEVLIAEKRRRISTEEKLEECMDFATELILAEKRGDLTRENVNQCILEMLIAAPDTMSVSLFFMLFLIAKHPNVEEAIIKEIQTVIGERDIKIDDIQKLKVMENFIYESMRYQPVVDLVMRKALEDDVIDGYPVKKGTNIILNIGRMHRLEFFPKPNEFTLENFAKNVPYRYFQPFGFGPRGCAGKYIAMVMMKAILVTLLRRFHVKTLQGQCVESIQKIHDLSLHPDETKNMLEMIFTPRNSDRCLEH
# ASSAY PROCEDURE: Aromatase inhibition, in vitro radiosubstrate incubation (testosterone to E2 conversion), human placental microsomes
# Format: biochemical
# SETUP CONDITIONS: 10 µM test compound; non-inhibited control 100%; mean ± SD, n = 3; read-out: Arom Rel.conv. ± SD
Please assign NOT MET whenever remaining activity at 10 µM is at or above 90%, and MET whenever it is below.

Example cases with answers are listed next.
| MOLECULE | EXPERIMENTAL TARGET | QUALITATIVE LABEL |
| --- | --- | --- |
| C[C@@]12CC[C@@H]3c4ccc(O)cc4CC[C@H]3[C@@H]1CCC2=O | human aromatase (Homo sapiens, UniProt P11511) | MET |
| C[C@]12CCC[C@H]1[C@@H]1CCc3c(cc(I)c(O)c3I)[C@H]1CC2 [16a] | human aromatase (Homo sapiens, UniProt P11511) | NOT MET |
| C[C@@]12CC[C@@H]3c4cc(Br)c(O)c(Br)c4CC[C@H]3[C@@H]1CCC2=O [12b] | human aromatase (Homo sapiens, UniProt P11511) | NOT MET |
| C[C@@]12CC[C@@H]3c4cc(I)c(O)cc4CC[C@H]3[C@@H]1CCC2=O [10a] | human aromatase (Homo sapiens, UniProt P11511) | MET |
| C[C@]12CC[C@@H]3c4ccc(O)cc4CC[C@H]3[C@@H]1CCC2=O [E1 (4), estrone, reference compound] | human aromatase (Homo sapiens, UniProt P11511) | MET |

Is the reported remaining activity at 10 µM for C[C@@]12CC[C@@H]3c4ccc(O)c(Br)c4CC[C@H]3[C@@H]1CCC2=O [11b] strictly below 90%?
MET

Item C[C@]12CCC[C@H]1[C@@H]1CCc3cc(O)ccc3[C@H]1CC2 : remaining activity at 10 µM beneath 90%, strictly?
NOT MET

A record lists C[C@]12CCC[C@H]1[C@@H]1CCc3cc(O)c(Br)cc3[C@H]1CC2 [14b] . Is its remaining activity at 10 µM below 90%?
NOT MET

Is 90% strictly greater than the molecule's reported remaining activity at 10 µM? molecule: C[C@]12CCC[C@H]1[C@@H]1CCc3c(cc(Cl)c(O)c3Cl)[C@H]1CC2 [16c, 2,4-bis-chloro-17-deoxy-13α-estrone]
MET

Identify whether the molecule C[C@@]12CC[C@@H]3c4cc(Br)c(O)cc4CC[C@H]3[C@@H]1CCC2=O [10b] records remaining activity at 10 µM below 90%.
NOT MET

Say whether its remaining activity at 10 µM is strictly beneath 90%. Entry: C[C@@]12CC[C@@H]3c4cc(Cl)c(O)cc4CC[C@H]3[C@@H]1CCC2=O [10c]
NOT MET

Please indicate whether the reported remaining activity at 10 µM of C[C@]12CC[C@@H]3c4cc(I)c(O)cc4CC[C@H]3[C@@H]1CCC2=O is strictly below 90%.
MET

I wonder whether C[C@]12CC[C@@H]3c4cc(Br)c(O)c(Br)c4CC[C@H]3[C@@H]1CCC2=O has remaining activity at 10 µM below 90%. Can you tell?
MET

hey, is remaining activity at 10 µM for C[C@]12CC[C@@H]3c4cc(I)c(O)c(I)c4CC[C@H]3[C@@H]1CCC2=O lower than 90% or not?
MET
